src = ChEMBL document CHEMBL1255446

Below, each of the compounds is paired with its reported fold change (FC) value.
system: Human immunodeficiency virus 1; experiment: Antiviral activity against HIV1 with RT connection domain K103N/T369I mutant transfected in HEK293 cells assessed as inhibition of viral replication relative to HIV1 NL4-3; assay type: functional
Output spec: single numeric token, no unit.

[[record]]
compound = "O=C1Nc2ccc(Cl)cc2[C@@](C#CC2CC2)(C(F)(F)F)O1 [EFAVIRENZ]"
quantitative_readout = 164.1


What measured fold change (FC) is associated with Cc1cn([C@H]2C[C@H](N=[N+]=[N-])[C@@H](CO)O2)c(=O)[nH]c1=O [ZIDOVUDINE] on Human immunodeficiency virus 1?
2.3
